- Tested Target: T1, biotinylated Fc-fused monkey CD137 (monkey, biotin on the AviTag)
- T1 construct: also called cyCD137-Fc-BAP
- T1 sequence (chain, as listed by the source limits assumed): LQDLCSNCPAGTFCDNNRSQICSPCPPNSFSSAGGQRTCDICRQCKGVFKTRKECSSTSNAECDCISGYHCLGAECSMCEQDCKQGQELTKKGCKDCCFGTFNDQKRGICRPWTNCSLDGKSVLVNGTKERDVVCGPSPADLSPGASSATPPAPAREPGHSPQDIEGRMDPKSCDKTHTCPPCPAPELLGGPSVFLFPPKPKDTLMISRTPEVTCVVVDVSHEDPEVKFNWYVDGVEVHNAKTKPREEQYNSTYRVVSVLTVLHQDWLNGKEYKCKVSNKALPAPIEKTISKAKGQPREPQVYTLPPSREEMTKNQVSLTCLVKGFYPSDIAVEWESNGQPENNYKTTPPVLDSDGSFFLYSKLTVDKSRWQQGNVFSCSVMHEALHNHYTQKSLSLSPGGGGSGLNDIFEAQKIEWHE
- Protocol: ELISA, 1 mM ADP, 0.156 ug/mL
- Set-up: reference not given here
Quantity Name: absorbance ratio
Respond numerically, and do not add a unit to the figure.

dBBAT007-P253 (antibody, human IgG1, lambda, V domains shown) VH: EVQLVESGGDLVKPGGGLRLSCAASGFTFSGYTMNWVRQAPGKGLEWVSSISSRSNYAHYADSVKGRFTISRDNAKNSLYLQMNSLRAEDTAVYYCARFGLKNFMNWVFDYWGQGTLVTVSS VL: QSALTQPPSASGSPGQTVTISCTGTSSDVGFYNYVSWYQQHPGKAPKLMIYGTSKRPSGVPDRFSGSKSGNTASLTVSGLQAEDEADYFCSSYAYDAQLVFGGGTKLTVLG = 22

Noted for dBBAT134-P253 (antibody, human IgG1, lambda, V domains shown) VH: EVQLVESGGDLVKPGGGLRLSCAASGFTFSSYTMNWVRQAPGKGLEWVSSISSRSNYADYADSVKGRFTISRDNAKNSLYLQMNSLRAEDTAVYYCARYGAKNEMNWVFDYWGQGTLVTVSS VL: QSALTQPPSASGSPGQTVTISCTGTSTDVGFYNYVSWYQQHPGKAPKLMIYEVSKRPSGVPDRFSGSKSGNTASLTVSGLQAEDEADYFCSSYTYDQQLMFGGGTKLTVLG : its absorbance ratio reads 2.2
